Biological target: CYP2C19 (Homo sapiens, UniProt P33261)
Construct: 0.1 mg/mL protein human liver microsomes (BD Gentest); tissue BD Gentest; host or cells: human liver microsomes
Sequence (P33261 whole entry): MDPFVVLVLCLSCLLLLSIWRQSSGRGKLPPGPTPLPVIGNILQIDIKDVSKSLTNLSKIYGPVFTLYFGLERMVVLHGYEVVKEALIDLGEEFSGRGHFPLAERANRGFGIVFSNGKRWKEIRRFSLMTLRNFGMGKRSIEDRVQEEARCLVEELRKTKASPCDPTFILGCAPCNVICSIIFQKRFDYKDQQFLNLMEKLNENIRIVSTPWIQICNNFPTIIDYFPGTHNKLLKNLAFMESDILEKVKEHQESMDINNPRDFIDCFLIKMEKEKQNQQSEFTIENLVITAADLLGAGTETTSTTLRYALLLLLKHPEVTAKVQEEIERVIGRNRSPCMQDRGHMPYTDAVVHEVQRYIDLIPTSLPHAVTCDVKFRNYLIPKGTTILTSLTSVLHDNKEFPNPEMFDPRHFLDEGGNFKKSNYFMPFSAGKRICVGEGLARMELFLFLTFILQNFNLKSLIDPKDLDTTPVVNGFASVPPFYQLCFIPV
Test: Cocktail assay for CYPs, mephenytoin 4′-hydroxylation (CYP2C19), human liver microsomes
Format: biochemical
Conditions: 30 μM mephenytoin, 0.1 mg/mL human liver microsomes, 10 min at 37° C.; read-out: CYP IC50 (nM) 2C19
# IC50 per entry
PROPERTY: IC50

# COMPOUND, PROPERTY, RECORDED VALUE
data = [
    ("O=S(=O)(NCc1ccccc1-c1cncn1CCc1ccc(F)cc1)c1cccnc1 [Compound 17]", "IC50", "> 10000 nM"),
    ("CN1CCN(c2ncc(S(=O)(=O)N3CCc4c(ncnc4-c4cncn4CCc4ccc(F)cc4)C3)s2)CC1 [Compound 67]", "IC50", "> 10000 nM"),
    ("O=C(c1cccnc1)N1CCCC1c1cccc(-c2cncn2CCc2ccc(F)cc2)c1 (single isomer, unassigned) [Compound 48b]", "IC50", "4800 nM"),
    ("Cn1cncc1-c1ccccc1C1CCCN1S(=O)(=O)c1cnc(N2CCN3C[C@H](O)C[C@H]3C2)s1 (stereo partly shown) [Compound 24]", "IC50", "> 10000 nM"),
    ("CC(C)NC(=O)N1CCCC1c1cccc(-c2cncn2CCc2ccc(F)cc2)c1 (stereo not shown) [Compound 50]", "IC50", "2070 nM"),
    ("CC(=O)Nc1ncc(S(=O)(=O)N2CCCC2c2ccccc2-c2cncn2C2CC2)s1 (stereo not shown) [Compound 31]", "IC50", "> 10000 nM"),
    ("O=S(=O)(c1ccc(N2CCC(O)CC2)nc1)N1CCCC1c1ccccc1-c1cncn1CCc1ccc(F)cc1 (single isomer, unassigned) [Compound 33]", "IC50", "> 10000 nM"),
]

----------
Target: CYP2C9 (Homo sapiens, UniProt P11712)
Construct: 0.1 mg/mL protein human liver microsomes (BD Gentest); tissue BD Gentest; host or cells: human liver microsomes
Sequence (P11712 whole entry): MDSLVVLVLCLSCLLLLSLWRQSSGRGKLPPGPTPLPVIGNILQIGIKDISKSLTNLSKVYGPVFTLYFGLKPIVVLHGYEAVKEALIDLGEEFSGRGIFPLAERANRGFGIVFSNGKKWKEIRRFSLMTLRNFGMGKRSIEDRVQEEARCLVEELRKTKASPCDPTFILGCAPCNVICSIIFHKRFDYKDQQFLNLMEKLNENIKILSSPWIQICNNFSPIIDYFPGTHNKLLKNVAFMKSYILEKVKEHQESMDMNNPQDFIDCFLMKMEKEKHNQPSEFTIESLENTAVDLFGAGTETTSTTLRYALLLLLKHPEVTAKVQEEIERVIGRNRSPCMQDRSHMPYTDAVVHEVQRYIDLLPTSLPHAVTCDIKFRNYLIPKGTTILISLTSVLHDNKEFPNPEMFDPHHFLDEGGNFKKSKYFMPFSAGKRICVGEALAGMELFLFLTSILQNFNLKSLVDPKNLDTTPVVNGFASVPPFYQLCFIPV
Experiment: Cocktail assay for CYPs, diclofenac 4′-hydroxylation (CYP2C9), human liver microsomes
Assay type: biochemical
Settings: 5 μM diclofenac, 0.1 mg/mL human liver microsomes, 10 min at 37° C.; read-out: CYP IC50 (nM) 2C9
Method: Determination of IC50 in a Cocktail Assay for CYPs 1A2, 2C9, 2C19, 2D6 and 3A4: This assay was performed in a standard 96-well plate design. […] The production of the metabolite of each probe substrate was determined after incubation for 10 min at 37° C. Quantitation of the metabolite peak area ratio against an internal standard (tolbutamide) was determined by LC/MS/MS analysis following acetonitrile treatment of the incubations. […]

# COMPOUND, IC50
records = [
    ("O=S(=O)(c1cnc(Cl)c(Br)c1)N1CCCC1c1cccc(-c2cncn2CCc2ccc(F)cc2)c1 (stereo not shown)", "422 nM"),
    ("CC(NS(=O)(=O)c1cnc(N2CCN(C)CC2)s1)c1ccc(-c2cncn2CCc2ccc(F)cc2)cc1 (stereo not shown)", "4300 nM"),
    ("O=C(c1ccc(N2CCOCC2)nc1)N1CCCC1c1cccc(-c2cncn2CCc2ccc(F)cc2)c1 (stereo not shown)", "1970 nM"),
    ("CN(C)c1ccc(S(=O)(=O)N2CCc3c(cccc3-c3cncn3CCc3ccc(F)cc3)C2)cn1", "1050 nM"),
]

----------
# IC50 per entry
Target: CYP2D6 (Homo sapiens)
Construct: 0.1 mg/mL protein human liver microsomes (BD Gentest); tissue BD Gentest; host or cells: human liver microsomes
Sequence (P10635 whole entry): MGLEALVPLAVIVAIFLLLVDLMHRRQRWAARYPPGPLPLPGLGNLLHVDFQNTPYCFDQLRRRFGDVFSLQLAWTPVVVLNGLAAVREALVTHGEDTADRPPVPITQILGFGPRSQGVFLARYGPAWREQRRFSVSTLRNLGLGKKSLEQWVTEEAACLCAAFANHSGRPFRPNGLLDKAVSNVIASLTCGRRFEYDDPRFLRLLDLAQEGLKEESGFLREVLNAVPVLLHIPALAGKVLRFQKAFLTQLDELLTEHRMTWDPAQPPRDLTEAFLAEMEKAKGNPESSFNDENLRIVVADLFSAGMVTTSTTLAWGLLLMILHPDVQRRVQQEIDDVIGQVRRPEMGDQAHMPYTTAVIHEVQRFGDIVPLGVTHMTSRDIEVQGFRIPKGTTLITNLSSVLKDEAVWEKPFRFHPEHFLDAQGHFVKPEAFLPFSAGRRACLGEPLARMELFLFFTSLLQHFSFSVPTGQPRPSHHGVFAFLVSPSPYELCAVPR
Assay: Cocktail assay for CYPs, dextromethorphan O-demethylation (CYP2D6), human liver microsomes
Assay type: biochemical
Details: 5 μM dextromethorphan, 0.1 mg/mL human liver microsomes, 10 min at 37° C.; read-out: CYP IC50 (nM) 2D6
Experimental: Determination of IC50 in a Cocktail Assay for CYPs 1A2, 2C9, 2C19, 2D6 and 3A4: This assay was performed in a standard 96-well plate design. […] The production of the metabolite of each probe substrate was determined after incubation for 10 min at 37° C. Quantitation of the metabolite peak area ratio against an internal standard (tolbutamide) was determined by LC/MS/MS analysis following acetonitrile treatment of the incubations. […]

# MOLECULE, READING QUALIFIER, IC50, nM
data = [
    ("COCCn1cncc1-c1ccccc1C1CCCN1S(=O)(=O)c1cnc(NC(C)=O)s1 (stereo not shown)", ">", 10000),
    ("CN1CCN(c2ncc(S(=O)(=O)NC(c3ccccc3)c3ccccc3-c3cncn3CCc3ccc(F)cc3)s2)CC1 (stereo not shown)", ">", 10000),
    ("CC(=O)Nc1ncc(S(=O)(=O)N2CCCC2c2ccc(-c3cncn3CCc3ccc(F)cc3)cc2)s1 (stereo not shown)", "=", 1200),
    ("CC(=O)Nc1ncc(S(=O)(=O)N2CCCC2c2ccccc2-c2cncn2CCc2ccc(F)cc2)s1 (stereo not shown)", "=", 4050),
    ("O=S(=O)(c1ccc(N2CCOCC2)nc1)N1CCc2c(cccc2-c2cncn2CCc2ccc(F)cc2)C1", "=", 2210),
    ("O=S(=O)(NCc1ccccc1-c1cncn1CCc1ccc(F)cc1)c1cccnc1", "=", 5200),
    ("O=S(=O)(c1ccc(N2CCC(O)CC2)nc1)N1CCCC1c1ccccc1-c1cncn1CCc1ccc(F)cc1 (single isomer, unassigned) [Compound 33]", "=", 6500),
    ("O=C(NCc1ccc(S(=O)(=O)N2CCCC2c2cccc(-c3cncn3CCc3ccc(F)cc3)c2)s1)c1ccccc1 (single isomer, unassigned) [Compound 55b]", "=", 163),
    ("CC(=O)Nc1ncc(S(=O)(=O)NC(C)(C)c2ccccc2-c2cncn2CCc2ccc(F)cc2)s1", "=", 2880),
    ("CC(=O)Nc1ncc(S(=O)(=O)NCc2cccc(-c3cncn3CCc3ccc(F)cc3)c2)s1", "=", 348),
    ("Cn1cncc1-c1ccccc1C1CCCN1S(=O)(=O)c1cnc(N2CCN3C[C@H](O)C[C@H]3C2)s1 (stereo partly shown)", ">", 10000),
    ("O=C(c1ccc(N2CCOCC2)nc1)N1CCCC1c1ccccc1-c1cncn1CCc1ccc(F)cc1 (single isomer, unassigned) [Compound 43a]", ">", 10000),
    ("CN(C)c1ccc(S(=O)(=O)N2CCc3c(cccc3-c3cncn3CCc3ccc(F)cc3)C2)cn1", "=", 3250),
    ("CC(=O)Nc1ncc(S(=O)(=O)N2Cc3cccc(-c4cncn4CCc4ccc(F)cc4)c3C2)s1", "=", 1400),
    ("O=S(=O)(c1ccc(NCC(O)C2CC2)nc1)N1CCCC1c1ccccc1-c1cncn1CCc1ccc(F)cc1 (single isomer, unassigned) [Compound 34a]", "=", 1670),
    ("CC(C)NC(=O)N1CCCC1c1ccccc1-c1cncn1CCc1ccc(F)cc1 (single isomer, unassigned) [Compound 46a]", ">", 10000),
    ("CC(C)NC(=O)N1CCCC1c1ccccc1-c1cncn1CCc1ccc(F)cc1 (single isomer, unassigned) [Compound 46b]", ">", 10000),
    ("CN1CCN(c2ncc(S(=O)(=O)N3CCc4c(cccc4-c4cncn4CCc4ccc(F)cc4)C3)s2)CC1", "=", 2170),
    ("CC(NS(=O)(=O)c1cnc(N2CCN(C)CC2)s1)c1ccc(-c2cncn2CCc2ccc(F)cc2)cc1 (stereo not shown)", "=", 2530),
    ("O=S(=O)(NCc1ccccc1-c1cncn1CCc1ccc(F)cc1)c1cnc(N2CCN3C[C@H](O)C[C@H]3C2)s1", "=", 3200),
    ("O=S(=O)(c1cnc(N2CCN3C[C@H](O)C[C@H]3C2)s1)N1CCc2cccc(-c3cncn3CCc3ccc(F)cc3)c2C1", "=", 4900),
    ("CC(=O)Nc1ncc(S(=O)(=O)N2CCc3cc(-c4cncn4CCc4ccc(F)cc4)ccc3C2)s1", "=", 765),
    ("O=C(NCc1ccc(S(=O)(=O)N2CCCC2c2cccc(-c3cncn3CCc3ccc(F)cc3)c2)s1)c1ccccc1 (single isomer, unassigned) [Compound 55a]", "=", 139),
    ("COc1ccc(OC)c(S(=O)(=O)N2CCCC2c2cccc(-c3cncn3CCc3ccc(F)cc3)c2)c1 (single isomer, unassigned) [Compound 53a]", "=", 1370),
    ("CN(C)c1ccc(S(=O)(=O)N2CCCC2c2ccccc2-c2cncn2CCc2ccc(F)cc2)cn1 (single isomer, unassigned) [Compound 28a]", "=", 6990),
    ("CC(=O)Nc1ncc(S(=O)(=O)NC2(c3ccc(-c4cncn4[C@H](C)c4ccc(F)cc4)cc3)CC2)s1", "=", 9200),
    ("CN1CCCC1c1ccccc1-c1cncn1CCc1ccc(F)cc1 (single isomer, unassigned) [Compound 45b]", "=", 2480),
    ("CC(=O)Nc1ncc(S(=O)(=O)NCc2ccccc2-c2cncn2CCc2ccc(F)cc2)s1", "=", 7180),
]
